Below: a set of entries, each annotated with reported cell viability.
- Test system: K562;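 note: after 48 h exposure read by CellTiter-Glo luminescence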
- Assay procedure: cell viability relative to vehicle control; higher = less cytotoxic
- Test parameters: 10 µM; SRSF2 genotype: SRSF2 P95H/wt

Compound	U	cell viability
C/C(=C(/CCOC(=O)c1ccccc1)SC(=O)c1ccccc1)N(C=O)Cc1cnc(C)nc1N	%	103
CC(=O)Nc1ccccc1 [Acetanilide (Antifebrin)]	%	104
CC(C)CC(CC(=O)NO)C(=O)N[C@@H](Cc1ccc2ccccc2c1)C(=O)N[C@@H](C)C(=O)NCCN (stereo partly specified)	%	105
CC1CCN(CC[C@H]2CCCN2S(=O)(=O)c2cccc(O)c2)CC1	%	101
COc1ccc(-c2cc(=O)c3c(O)cc(O)cc3o2)cc1	%	106
O=C(O)c1cc(=O)c2c(OCC(O)COc3cccc4oc(C(=O)O)cc(=O)c34)cccc2o1 [Disodium Cromoglycate]	%	93.6
COc1ccc(COc2ccc(CC#N)cc2)cc1	%	103
O=C(O)Cc1ccc2c(c1)C(=O)c1ccccc1CO2	%	104
COc1cc2oc(-c3ccc(O)cc3)cc(=O)c2c(O)c1[C@@H]1O[C@H](CO)[C@@H](O)[C@H](O)[C@H]1O[C@@H]1O[C@H](CO)[C@@H](O)[C@H](O)[C@H]1O	%	106
O=C(O)C1=C(CSc2nnnn2CS(=O)(=O)O)CS[C@@H]2[C@H](NC(=O)[C@H](O)c3ccccc3)C(=O)N12 [Cefonicid sodium]	%	103
CCn1c(C(=O)N(C2CC2)C2CC2)cc2c3c(ncn3C)c(Nc3cc(C)n(C)n3)nc21	%	103
